tested on: MCF7 breast; assay: NCI tumour cell line growth inhibition, 48 h; in the data active = GI50 below about 0.43 µM; inactive = the rest
Outcome field: choose from 1 = active, 0 = inactive

What did this assay record as the result for CCN1C(=O)N(CC)C2C1NN=C1SC(c3ccccc3)=CC(=O)N12 (centres undefined) ?
1

Hi, do you know how COC(=O)c1cccc(NC2=C(Cl)C(=O)c3nc(C)ccc3C2=O)c1 came out in this test?
0

Dear colleague, could you share the recorded outcome for Fc1ccc(-c2cc3nc(C(Cl)Cl)nc(-c4ccccc4)n3n2)cc1 when you have a moment?
0

How was C#Cc1cc(OC)c(C(=O)Nc2ccc(F)cc2C(=O)Nc2cccc(S(=O)(=O)C(F)(F)F)c2)cn1 classified in this test?
0
